target under test: intracellular GCN2 (phosphorylation of the GCN2 substrate eIF2α) (Homo sapiens)
Sequence (Q9P2K8 whole entry): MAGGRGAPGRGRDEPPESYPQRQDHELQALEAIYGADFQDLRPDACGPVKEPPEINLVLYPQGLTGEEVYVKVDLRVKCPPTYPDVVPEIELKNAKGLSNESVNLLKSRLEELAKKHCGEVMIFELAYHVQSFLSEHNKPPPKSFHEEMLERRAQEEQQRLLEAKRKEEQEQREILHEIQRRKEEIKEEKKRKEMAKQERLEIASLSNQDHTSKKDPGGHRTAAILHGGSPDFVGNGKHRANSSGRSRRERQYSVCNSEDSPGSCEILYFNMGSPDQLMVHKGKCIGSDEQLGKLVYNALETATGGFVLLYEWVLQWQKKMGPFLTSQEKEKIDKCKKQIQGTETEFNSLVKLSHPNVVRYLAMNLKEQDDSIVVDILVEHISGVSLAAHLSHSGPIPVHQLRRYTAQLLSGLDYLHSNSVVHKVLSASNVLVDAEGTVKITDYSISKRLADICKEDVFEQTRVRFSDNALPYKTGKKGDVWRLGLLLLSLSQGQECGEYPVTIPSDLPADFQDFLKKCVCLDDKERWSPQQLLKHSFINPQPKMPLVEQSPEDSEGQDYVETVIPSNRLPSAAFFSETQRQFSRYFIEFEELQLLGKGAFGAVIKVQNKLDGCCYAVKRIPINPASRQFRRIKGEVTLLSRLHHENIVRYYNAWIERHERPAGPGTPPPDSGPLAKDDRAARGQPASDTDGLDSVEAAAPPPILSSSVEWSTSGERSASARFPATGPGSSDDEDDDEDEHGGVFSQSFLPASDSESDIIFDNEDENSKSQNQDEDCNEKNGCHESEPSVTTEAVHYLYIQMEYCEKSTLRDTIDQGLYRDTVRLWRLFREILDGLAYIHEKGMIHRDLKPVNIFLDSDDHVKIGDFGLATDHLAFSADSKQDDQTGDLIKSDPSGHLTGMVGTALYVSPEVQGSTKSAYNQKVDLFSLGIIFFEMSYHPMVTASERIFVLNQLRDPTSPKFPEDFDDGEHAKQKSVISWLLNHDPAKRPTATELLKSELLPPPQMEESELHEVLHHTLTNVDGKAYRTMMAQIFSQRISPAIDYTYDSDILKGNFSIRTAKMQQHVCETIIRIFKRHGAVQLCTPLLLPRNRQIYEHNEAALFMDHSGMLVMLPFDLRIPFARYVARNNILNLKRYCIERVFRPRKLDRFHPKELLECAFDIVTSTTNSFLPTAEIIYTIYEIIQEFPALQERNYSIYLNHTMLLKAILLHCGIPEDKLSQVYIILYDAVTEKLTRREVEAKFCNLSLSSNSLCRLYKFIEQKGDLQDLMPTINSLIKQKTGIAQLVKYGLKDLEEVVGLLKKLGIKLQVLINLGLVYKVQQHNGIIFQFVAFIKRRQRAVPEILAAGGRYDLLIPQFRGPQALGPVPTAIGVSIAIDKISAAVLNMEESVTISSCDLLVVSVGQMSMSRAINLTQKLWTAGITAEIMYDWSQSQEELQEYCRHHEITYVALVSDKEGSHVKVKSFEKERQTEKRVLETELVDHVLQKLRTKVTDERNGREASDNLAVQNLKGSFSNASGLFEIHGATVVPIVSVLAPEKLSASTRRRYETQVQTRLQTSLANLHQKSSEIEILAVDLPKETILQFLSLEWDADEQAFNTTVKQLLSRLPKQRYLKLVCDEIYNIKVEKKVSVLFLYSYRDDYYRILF
test details: GCN2 cellular inhibition assay (AlphaScreen SureFire P-eIF2α Ser51, borrelidin-treated U2OS cells)
Assay type: cell-based
conditions: compounds of Formula IV; biomarker assay, phosphorylated eIF2α Ser51 in borrelidin-treated U2OS cells
Measured IC50, listed per entry.

Reference set (4 entries):
- molecule: "CP(C)(=O)C1CC(c2cn[nH]c2)CN(c2ccnc(-c3cnc4cnc(C(F)(F)F)cn34)n2)C1 (centres unmarked) [IV-590]"
  target under test: "intracellular GCN2 (phosphorylation of the GCN2 substrate eIF2α) (Homo sapiens)"
  result: "> 5 µM"
- molecule: "FC(F)c1cn2c(-c3nccc(N4CCCC(c5cccnc5)C4)n3)cnc2cn1 (centres unmarked) [IV-52]"
  target under test: "intracellular GCN2 (phosphorylation of the GCN2 substrate eIF2α) (Homo sapiens)"
  result: "> 5 µM"
- molecule: "CC1CN(c2ccnc(-c3cnc4cnc(C(F)(F)F)cn34)n2)C(C)C(c2cn[nH]c2)N1 (single isomer, unassigned) [IV-345]"
  target under test: "intracellular GCN2 (phosphorylation of the GCN2 substrate eIF2α) (Homo sapiens)"
  result: "0.5 to 5 µM"
- molecule: "NC(=O)C1COCCN(c2ccnc(-c3cnc4cnc(C(F)(F)F)cn34)n2)C1 (centres unmarked) [IV-425]"
  target under test: "intracellular GCN2 (phosphorylation of the GCN2 substrate eIF2α) (Homo sapiens)"
  result: "> 5 µM"

Ask: Indicate the recorded IC50 value for this molecule: CC1C(c2cn[nH]c2)OCCN1c1ccnc(-c2cnc3cnc(Cl)cn23)n1 (single isomer, unassigned) [IV-9]
Reply: < 0.5 µM

Ask: Respond only with IC50 recorded for CC1C(c2cn[nH]c2)CC(P(C)(C)=O)CN1c1ccnc(-c2cnc3cnc(C(F)(F)F)cn23)n1 (centres unmarked) [IV-693]
Reply: > 5 µM

Ask: Tell me measured IC50 for Cc1[nH]ncc1C1CCCN(c2ccnc(-c3cnc4cnc(C(F)(F)F)cn34)n2)C1 (single isomer, unassigned) [IV-471] please.
Reply: > 5 µM

Ask: Answer with reported IC50 of CNS(=O)(=O)C1CCN(c2ccnc(-c3cnc4cnc(C(F)F)cn34)n2)C1 (centres unmarked) [IV-71]
Reply: > 5 µM

Ask: Quote IC50 reported for FC(F)c1cn2c(-c3nccc(N4CCOCC4)n3)cnc2cn1 [IV-104] please.
Reply: > 5 µM

Ask: Let me know recorded IC50 for CC1CN(c2nccc(-c3cnc4cnc(C(F)(F)F)cn34)n2)CC(c2cn[nH]c2)O1 (single isomer, unassigned) [IV-202] , thanks.
Reply: 0.5 to 5 µM

Ask: Identify IC50 associated with the molecule CC(=O)N1CCN(c2ccnc(-c3cnc4cnc(CO)cn34)n2)CC1 [IV-26]
Reply: > 5 µM

---

target under test: intracellular GCN2 (phosphorylation of the GCN2 substrate eIF2α) (Homo sapiens)
test details: GCN2 cellular inhibition assay (AlphaScreen SureFire P-eIF2α Ser51, borrelidin-treated U2OS cells)
Assay type: cell-based
conditions: compounds of Formula II; biomarker assay, phosphorylated eIF2α Ser51 in borrelidin-treated U2OS cells
Below is a list of entries, each paired with its recorded IC50 value.

- molecule: "O=C1CCN(c2cc(-c3cnc4ccc(C(F)F)nn34)ncn2)CCN1"
  reported endpoint: "IC50"
  result: "> 5 µM"
- molecule: "CC1C(CNS(C)(=O)=O)CCN1c1cc(-c2cnc3ccc(C(F)F)nn23)ncn1 (centres unmarked) [II-244]"
  reported endpoint: "IC50"
  result: "> 5 µM"
- molecule: "CCN1CCN(c2cc(-c3cnc4ccc(C(F)F)nn34)ncn2)C(C)C1CNS(C)(=O)=O (centres unmarked) [II-482]"
  reported endpoint: "IC50"
  result: "< 0.5 µM"
- molecule: "CC1C(CNS(C)(=O)=O)C(F)(F)C(C)CN1c1cc(-c2cnc3ccc(C(F)F)nn23)ncn1 (centres unmarked) [II-476]"
  reported endpoint: "IC50"
  result: "0.5 to 5 µM"
- molecule: "CNc1cc(-c2cnc3ccc(C(F)F)nn23)cc(N2CC(C)C(F)(F)C(CNS(C)(=O)=O)C2)n1 (centres unmarked) [II-65]"
  reported endpoint: "IC50"
  result: "0.5 to 5 µM"

Ask: Please indicate IC50 recorded for `CC(=O)N1CCCN(c2cc(-c3cnc4ccc(C(F)F)nn34)ccn2)CC1`
Reply: 0.5 to 5 µM

Ask: Indicate the recorded IC50 value for this molecule: CS(=O)(=O)NCC1CC(O)CN(c2cc(-c3cnc4ccc(C(F)F)nn34)ncn2)C1 (centres unmarked) [II-12]
Reply: 0.5 to 5 µM

Ask: Report measured IC50; entry is OCC12CC1CN(c1cc(-c3cnc4ccc(C(F)F)nn34)ncn1)C2 (centres unmarked)
Reply: 0.5 to 5 µM

Data provenance: patent US10988477B2
